- assayedSystem: T1, SEZ6 Sushi Domain 1 (amino acids 336-395) on yeast (human, UniProt Q53EL9 355-414)
- T1 construct: yeast display
- T1 sequence (Q53EL9 355-414): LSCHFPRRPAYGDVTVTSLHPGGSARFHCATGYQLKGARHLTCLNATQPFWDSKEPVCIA
- procedureText: yeast display, flow cytometry;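 note: antibody binding to individual SEZ6 domains displayed on yeast, measured by flow cytometry, antibody at 50 nM purified or hybridoma supernatant diluted 1:2, 90 min on ice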
measuredMetric: binding result

SC17.82 (antibody, V domains shown, murine mAb) VH: EVQLQQSGPELVKPGASVKMSCKASGYTFTDSYMNWVKQSHGKSLEWIGRVNPNNGGASYNHKFKGKATLTVDKSLSTAYMRLNSLTSEDSAVYYCSRSGDLYYYAMDYWGQGTSVTVSS VL: QIVLTQSPAIMSASLGEEITLTCSASSSVSYMHWYQQKSGTSPKLLIYSTSNLASGVPSRFSGSGSGTFYSLTISSVEAEDAADYYCHQWSSFTFGSGTKLEIK | binds
SC17.97 (antibody, V domains shown, murine mAb) VH: QVQLPQSGAELAKPGASVKISCKASGFTFTSYWMHWVKQRPGQGLEWIGYINPSTDYTEYNQKFKDKATLTADKSSSTAYMQLGSLTSEDSAVYYCARSSYGSSPFDYWGQGSTLTVSS VL: DVVMTQTPLSLPVSLGDQASISCRSSQSLVHNNGNTYLHWYLQKPGQSPNLLIYKVSNRFSGVPDRFSGSGSGTDFTLKISIVEAEDLGLYFCSQSTHVPRTFGGGTKLEIK | binds
SC17.187 (antibody, V domains shown, murine mAb) VH: EVHLQQSGPELVNPGSSVKISCKAAGYTFTDYNMDWVKQSHGKRLEWIGNIYPNNGGAGYNQNFKDKATLTVDKSSSTAYMELRSLTSEDSAVYYCARSITAAWFAYWGQGTLVTVSA VL: DIKMTQSPSSMYASLGERVTLTCKASQDINSYLSWFQQKPGKSPETLIYRANRLIDGVPSRFSGSGSGQDYSLTISSLEYEDMGIYYCLQYDEFPPTFGGGTKLEIK | binds
